System: soybean (Glycine max)
Test: Test C pre-/postemergence: soybean
Format: in vivo
Details: Preemergence, 250 g ai/ha; scale 0 to 100, 0 no effect, 100 complete control
Would you mind telling me the reported Plant response rating, Soybean of each entry?
Give bare numbers.

Past entries and their recorded results:
| MOLECULAR_STRING | SYSTEM_NAME | Plant response rating, Soybean |
| --- | --- | --- |
| CCCc1nn(-c2ccc(F)c(F)c2)nc1Oc1ccnc(C(F)(F)F)c1 | soybean (Glycine max) | 35 |
| COc1nn(-c2cccc(F)c2)nc1Cc1ccnc(C(F)(F)F)c1 | soybean (Glycine max) | 25 |
| CCc1nn(-c2ccc(C(F)(F)F)cc2)nc1Cc1ccnc(C(F)(F)F)c1 | soybean (Glycine max) | 40 |

Now take the following compound into account.
### Prompt Can you share its Plant response rating, Soybean? I mean this compound: "FC(F)Oc1nn(-c2ccc(C(F)(F)F)cc2)nc1Cc1ccnc(C(F)(F)F)c1"
### Response 15

---

Tested on: morningglory (Ipomoea spp.)
Test: Test A pre-/postemergence: morningglory
Format: in vivo
Details: Postemergence, 500 g ai/ha; visual rating on 0 to 100 scale (0 no effect, 100 complete control), approximately ten days
VALUE_KIND: Morningglory plant response rating
Give bare numbers.

| MOLECULAR_STRING | REPORTED_RESULT |
| --- | --- |
| FC(F)(F)c1ccc(-n2nc(Cl)c(Cc3ccnc(C(F)(F)F)c3)n2)cc1 | 100 |
| COc1nn(-c2cccc(F)c2)nc1Cc1ccnc(C(F)(F)F)c1 | 100 |
| Cc1nn(-c2ccc(C(F)F)cn2)nc1C(=O)c1cccc(C(F)(F)F)c1 | 10 |
| Cc1nn(-c2ccc(F)cc2)nc1Oc1cccc(C(F)(F)F)c1 | 100 |

Okay, here is my list. What is Morningglory plant response rating for each of these?
1. CCc1nn(-c2ccc(C(F)(F)F)cc2)nc1Cn1cnc(C(F)(F)F)c1Cl
2. Cc1nn(-c2ccc(C(F)(F)F)cc2)nc1Sc1cccc(C(F)(F)F)c1
3. Fc1ccc(-n2nc(Cc3ccnc(C(F)(F)F)c3)c(OC(F)F)n2)cc1

### Response
0
50
100

Okay, here is my list. What is Morningglory plant response rating for each of these?
1. Cc1nn(-c2ccc(C(F)(F)F)cc2)nc1Nc1cccc(C(F)(F)F)c1
2. COc1nn(-c2ccc(C(F)(F)F)cc2)nc1Cc1ccnc(C(F)F)c1
3. FC(F)Oc1nn(-c2ccc(C(F)(F)F)cc2)nc1Cc1ccnc(C(F)(F)F)c1
4. Cc1nn(-c2ccc(C(F)(F)F)cc2)nc1Oc1ccnc(OC(F)F)c1

### Response
1: 30; 2: 100; 3: 100; 4: 90

---

Tested on: wild oat (Avena fatua)
Test: Test C pre-/postemergence: wild oat
Format: in vivo
Conditions: Postemergence, 125 g ai/ha; scale 0 to 100, 0 no effect, 100 complete control
Assign labels as follows, please: satisfied for Plant response rating, Oat, Wild below 60; not satisfied for Plant response rating, Oat, Wild equal to or exceeding 60.

| MOLECULAR_STRING | SYSTEM_NAME | CATEGORY_LABEL |
| --- | --- | --- |
| FC(F)Oc1nn(-c2ccc(C(F)(F)F)cc2)nc1Cc1ccnc(C(F)(F)F)c1 | wild oat (Avena fatua) | satisfied |
| COc1nn(-c2ccc(C(F)(F)F)cc2)nc1Cc1ccnc(C(F)F)c1 | wild oat (Avena fatua) | not satisfied |
| CCCc1nn(-c2ccc(C(F)(F)F)cc2)nc1Oc1ccnc(C(F)(F)F)c1 | wild oat (Avena fatua) | not satisfied |

### Prompt For this compound, is Plant response rating, Oat, Wild lower than 60? "CCCc1nn(-c2ccc(F)c(F)c2)nc1Oc1ccnc(C(F)(F)F)c1"
### Response satisfied

### Prompt For this compound, is Plant response rating, Oat, Wild lower than 60? "FC(F)(F)c1ccc(-n2nc(Cl)c(Cc3ccnc(C(F)(F)F)c3)n2)cc1"
### Response satisfied

### Prompt For this compound, is Plant response rating, Oat, Wild lower than 60? "CCc1nn(-c2ccc(C(F)(F)F)cc2)nc1Oc1ccnc(C(F)(F)F)c1"
### Response satisfied

---

Tested on: Barnyardgrass
Assay: Test C preemergence: barnyardgrass
Assay type: in vivo, Echinochloa crus-galli
Details: 62 g ai/ha, scale of 0 to 100, 0 is no effect, 100 is complete control
Would you mind telling me the reported Plant response rating, Barnyardgrass of each entry?
Numbers only.

Past entries and their recorded results:
| MOLECULE | Plant response rating, Barnyardgrass |
| --- | --- |
| Cc1nn(-c2ccc(F)c(C(F)(F)F)c2)nc1Cc1ccnc(C(F)(F)F)c1 [Compound 156] | 90 |
| CCOCc1nn(-c2ccc(F)cc2)nc1Oc1ccnc(C(F)(F)F)c1 [Compound 163] | 25 |
| CCCc1nn(-c2ccc(F)cc2)nc1Oc1ccnc(C(F)(F)F)c1 [Compound 168] | 100 |
| CCCc1nn(-c2ccc(C(F)(F)F)cc2)nc1Oc1ccnc(C(F)(F)F)c1 [Compound 170] | 98 |

Now take the following molecule into account.
### Prompt Can you share its Plant response rating, Barnyardgrass? I mean this molecule: CCOc1nn(-c2ccc(Cl)cc2)nc1Cc1ccnc(C(F)(F)F)c1 [Compound 188]
### Response 100

---

Test system: morningglory (Ipomoea spp.)
Experiment: Test A pre-/postemergence: morningglory
Format: in vivo
Details: Postemergence, 125 g ai/ha; 0 to 100 scale, 0 is no effect, 100 is complete control
VALUE_KIND: Plant response rating, Morningglory
Answers are plain numbers.

Past entries and their recorded results:
| MOLECULAR_STRING | Plant response rating, Morningglory |
| --- | --- |
| CCOCc1nn(-c2ccc(F)cc2)nc1Oc1ccnc(C(F)(F)F)c1 | 30 |
| Cc1nn(-c2ccc(F)c(C(F)(F)F)c2)nc1Cc1ccnc(C(F)(F)F)c1 | 90 |
| CC(C)Oc1nn(-c2ccc(C(F)(F)F)cc2)nc1Cc1ccnc(C(F)(F)F)c1 | 30 |
| Cc1nn(-c2ccc(F)c(F)c2)nc1Cc1ccnc(C(F)F)c1 | 70 |
| CCOc1nn(-c2ccc(F)cc2F)nc1Cc1ccnc(C(F)(F)F)c1 | 100 |

Okay, here is my list. What is Plant response rating, Morningglory for each of these?
1. CCc1nn(-c2ccc(F)c(C(F)(F)F)c2)nc1Oc1ccnc(C(F)(F)F)c1
2. Oc1nn(-c2ccc(C(F)(F)F)cc2)nc1Cc1ccnc(C(F)(F)F)c1
3. CCOc1nn(-c2ccc(Cl)cc2)nc1Cc1ccnc(C(F)(F)F)c1
4. FC(F)(F)c1cccc(-n2nc(Oc3ccnc(C(F)(F)F)c3)c(C3CC3)n2)c1
5. CCc1nn(-c2ccc(C(F)(F)F)cc2)nc1Cc1ccnc(C(F)(F)F)c1
6. CCCOc1nn(-c2ccc(C(F)(F)F)cc2)nc1Cc1ccnc(C(F)(F)F)c1

### Response
1. 100
2. 10
3. 90
4. 10
5. 90
6. 100

Okay, here is my list. What is Plant response rating, Morningglory for each of these?
1. Cc1cc(Oc2nn(-c3ccc(F)cc3)nc2C)ccn1
2. CCc1nn(-c2ccc(F)cc2F)nc1Oc1ccnc(C(F)F)c1

### Response
1. 0
2. 90

---

Test system: galium (catchweed bedstraw, Galium aparine)
Assay: Test C pre-/postemergence: galium
Type: in vivo
Conditions: Preemergence, 31 g ai/ha; scale of 0 to 100, 0 is no effect, 100 is complete control
Would you mind telling me the reported Plant response rating, Galium of each entry?
Answers are plain numbers.

| MOLECULAR_STRING | Plant response rating, Galium |
| --- | --- |
| CCOCc1nn(-c2ccc(F)cc2)nc1Oc1ccnc(C(F)(F)F)c1 | 0 |

Okay, here is my list. What is Plant response rating, Galium for each of these?
1. Fc1ccc(-n2nc(Cc3ccnc(C(F)(F)F)c3)c(OC(F)F)n2)cc1
2. FCc1nn(-c2ccc(F)cc2)nc1Oc1ccnc(C(F)(F)F)c1
3. Cc1nn(-c2ccc(F)cc2F)nc1Oc1ccnc(C(F)(F)F)c1

### Response
1. 0
2. 5
3. 95

---

System: velvetleaf (Abutilon theophrasti)
Experiment: Test C pre-/postemergence: velvetleaf
Type: in vivo
Settings: Postemergence, 31 g ai/ha; scale 0 to 100 (0 no effect, 100 complete control)
Would you mind telling me the reported Plant response rating, Velvetleaf of each entry?

Past entries and their recorded results:
| MOLECULE | VALUE_KIND | REPORTED_RESULT |
| --- | --- | --- |
| COc1nn(-c2ccc(C(F)(F)F)cc2)nc1Cc1ccnc(C(F)(F)F)c1 [Compound 15] | Plant response rating, Velvetleaf | 60 |
| CCCc1nn(-c2ccc(C(F)(F)F)cc2)nc1Oc1ccnc(C(F)(F)F)c1 [Compound 170] | Plant response rating, Velvetleaf | 75 |
| CCc1nn(-c2ccc(F)c(F)c2)nc1Oc1ccnc(C(F)(F)F)c1 [Compound 171] | Plant response rating, Velvetleaf | 25 |
| Fc1ccc(-n2nc(Cc3ccnc(C(F)(F)F)c3)c(OC(F)F)n2)cc1 [Compound 25] | Plant response rating, Velvetleaf | 15 |
| CCOc1nn(-c2ccc(C(F)(F)F)cc2)nc1Cc1ccnc(C(F)(F)F)c1 [Compound 164] | Plant response rating, Velvetleaf | 25 |
| CCc1nn(-c2ccc(C(F)(F)F)cc2)nc1Cc1ccnc(C(F)(F)F)c1 [Compound 155] | Plant response rating, Velvetleaf | 50 |

Now take the following molecule into account.
### Prompt Can you share its Plant response rating, Velvetleaf? I mean this molecule: COc1nn(-c2cccc(F)c2)nc1Cc1ccnc(C(F)(F)F)c1 [Compound 139]
### Response 20
